Target: Protein cereblon/Inactive tyrosine-protein kinase transmembrane receptor ROR1 (Homo sapiens) (UniProt Q96SW2+Q01973)
Sequence (Q01973 whole entry, looked up): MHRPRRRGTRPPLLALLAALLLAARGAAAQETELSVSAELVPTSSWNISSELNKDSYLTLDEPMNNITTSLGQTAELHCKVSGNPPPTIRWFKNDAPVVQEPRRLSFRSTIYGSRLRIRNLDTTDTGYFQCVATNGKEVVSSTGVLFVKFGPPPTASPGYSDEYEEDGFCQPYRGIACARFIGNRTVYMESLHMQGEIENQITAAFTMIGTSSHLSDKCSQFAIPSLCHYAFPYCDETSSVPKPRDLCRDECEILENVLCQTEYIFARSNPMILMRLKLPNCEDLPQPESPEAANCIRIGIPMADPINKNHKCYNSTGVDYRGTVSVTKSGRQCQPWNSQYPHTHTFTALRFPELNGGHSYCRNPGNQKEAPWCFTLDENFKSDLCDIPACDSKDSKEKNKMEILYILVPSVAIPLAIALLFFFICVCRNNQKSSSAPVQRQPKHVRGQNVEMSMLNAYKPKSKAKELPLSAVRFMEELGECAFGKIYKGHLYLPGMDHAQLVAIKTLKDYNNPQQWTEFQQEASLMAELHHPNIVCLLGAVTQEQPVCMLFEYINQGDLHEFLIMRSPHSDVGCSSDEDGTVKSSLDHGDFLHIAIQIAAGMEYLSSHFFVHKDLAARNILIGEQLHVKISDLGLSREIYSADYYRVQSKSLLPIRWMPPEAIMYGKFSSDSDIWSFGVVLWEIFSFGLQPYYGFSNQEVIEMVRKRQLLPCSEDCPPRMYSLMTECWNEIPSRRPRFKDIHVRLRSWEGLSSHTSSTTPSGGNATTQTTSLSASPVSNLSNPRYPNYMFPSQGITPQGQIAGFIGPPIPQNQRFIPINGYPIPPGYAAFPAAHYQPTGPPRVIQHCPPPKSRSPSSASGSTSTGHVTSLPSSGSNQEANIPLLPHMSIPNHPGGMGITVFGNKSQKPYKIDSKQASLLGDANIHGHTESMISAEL
Sequence (Q96SW2 whole entry, looked up): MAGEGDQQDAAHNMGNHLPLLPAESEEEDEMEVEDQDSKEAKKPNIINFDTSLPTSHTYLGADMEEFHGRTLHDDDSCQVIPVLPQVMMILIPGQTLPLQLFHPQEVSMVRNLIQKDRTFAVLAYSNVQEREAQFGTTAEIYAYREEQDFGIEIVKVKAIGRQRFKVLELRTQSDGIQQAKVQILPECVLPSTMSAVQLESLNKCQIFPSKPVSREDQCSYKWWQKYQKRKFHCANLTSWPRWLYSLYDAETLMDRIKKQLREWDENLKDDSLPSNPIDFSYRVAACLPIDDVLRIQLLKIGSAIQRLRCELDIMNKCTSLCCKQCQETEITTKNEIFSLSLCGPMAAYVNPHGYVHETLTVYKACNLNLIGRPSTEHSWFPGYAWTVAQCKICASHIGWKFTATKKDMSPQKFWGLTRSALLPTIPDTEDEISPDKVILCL
Test: PROTAC activity at CRBN/ROR1 in human NCI-H23 cells assessed as induction of ROR1 degradation at 1 uM incubated for 24 hrs by Western blot analysis relative to control
Assay type: cell-based
assay endpoint: Activity (%)

Here are 9 compounds together with their reported answers.
Measured Activity of CCN1CCC(Nc2c(Br)cnc3[nH]c(-c4ccc(N5CCN(C(=O)CCCCCCCNc6cccc7c6C(=O)N(C6CCC(=O)NC6=O)C7=O)CC5)cc4)nc23)CC1 (configuration not stated) : 75.3

Measured Activity of CCN1CCC(Nc2c(Br)cnc3[nH]c(-c4ccc(N5CCN(C(=O)CCCCCCCOc6ccc7c(c6)C(=O)N(C6CCC(=O)NC6=O)C7=O)CC5)cc4)nc23)CC1 (configuration not stated) : 0

Measured Activity of CCN1CCC(Nc2c(Br)cnc3[nH]c(-c4ccc(N5CCN(C(=O)CCCCCOc6cccc7c6C(=O)N(C6CCC(=O)NC6=O)C7=O)CC5)cc4)nc23)CC1 (configuration not stated) : 0

Measured Activity of CCN1CCC(Nc2c(Br)cnc3[nH]c(-c4ccc(N5CCN(C(=O)CCCCCCCNc6ccc7c(c6)C(=O)N(C6CCC(=O)NC6=O)C7=O)CC5)cc4)nc23)CC1 (configuration not stated) : 73.3

Measured Activity of CCN1CCC(Nc2c(Br)cnc3[nH]c(-c4ccc(N5CCN(CCOCCOCCNc6cccc7c6C(=O)N(C6CCC(=O)NC6=O)C7=O)CC5)cc4)nc23)CC1 (configuration not stated) : 89.6

Measured Activity of CCN1CCC(Nc2c(Br)cnc3[nH]c(-c4ccc(N5CCN(C(=O)CCCNc6cccc7c6C(=O)N(C6CCC(=O)NC6=O)C7=O)CC5)cc4)nc23)CC1 (configuration not stated) : 76

Measured Activity of CCN1CCC(Nc2c(Br)cnc3[nH]c(-c4ccc(N5CCN(CCOCCOCCNc6ccc7c(c6)C(=O)N(C6CCC(=O)NC6=O)C7=O)CC5)cc4)nc23)CC1 (configuration not stated) : 88.7

Measured Activity of CCN1CCC(Nc2c(Br)cnc3[nH]c(-c4ccc(N5CCN(CCOCCOCCOCCNc6ccc7c(c6)C(=O)N(C6CCC(=O)NC6=O)C7=O)CC5)cc4)nc23)CC1 (configuration not stated) : 73.5

Measured Activity of CCN1CCC(Nc2c(Br)cnc3[nH]c(-c4ccc(N5CCN(CCCCCCNc6cccc7c6C(=O)N(C6CCC(=O)NC6=O)C7=O)CC5)cc4)nc23)CC1 (configuration not stated) : 96.5

1: CCN1CCC(Nc2c(Br)cnc3[nH]c(-c4ccc(N5CCN(CCCNc6ccc7c(c6)C(=O)N(C6CCC(=O)NC6=O)C7=O)CC5)cc4)nc23)CC1 (configuration not stated)
2: CCN1CCC(Nc2c(Br)cnc3[nH]c(-c4ccc(N5CCN(C(=O)CCCCCCCCCNc6ccc7c(c6)C(=O)N(C6CCC(=O)NC6=O)C7=O)CC5)cc4)nc23)CC1 (configuration not stated)
3: CCN1CCC(Nc2c(Br)cnc3[nH]c(-c4ccc(N5CCN(C(=O)CCCCCCCCCOc6ccc7c(c6)C(=O)N(C6CCC(=O)NC6=O)C7=O)CC5)cc4)nc23)CC1 (configuration not stated)
Which order do these items take when sorted by rising Activity? List them. Write the labels in rank order as requested. 2, 3, 1
(2: 0%, 3: 60.5%, 1: 97.4%)
